Origin of the recorded values: patent US9493468B2

Kindly state Inf. I: Scedosporium prolificans IHEM21157, pIC50 for each of the entries shown.
Tested on: Scedosporium prolificans
PROCEDURE_TEXT: Antifungal activity in vitro, resazurin growth inhibition: Scedosporium prolificans (IHEM21157)
Type: cell-based
// no unit string in output, number only

Query: Which Inf. I: Scedosporium prolificans IHEM21157, pIC50 is listed for Clc1cccc2c1CN=C(c1cc3ccccc3s1)c1cccn1-2 [Compound 165] ?
Result: 4.46

Query: And what about the molecule Fc1ccc2oc(C3=NCc4ccc(Cl)cc4-n4cccc43)cc2c1 [Compound 124] ?
Result: 5.90

Query: And what about the molecule Clc1ccc(C2=NCc3c(Cl)cccc3-n3cccc32)cn1 [Compound 77] ?
Result: 5.57

Query: And what about the molecule Clc1cccc2c1CN=C(c1ccc3scnc3c1)c1cccn1-2 [Compound 188] ?
Result: 6.24
